Cited source for all entries: ChEMBL document CHEMBL1127244

- system-tested: Gastrin/cholecystokinin type B receptor (Mus musculus, UniProt P56481)
- Sequence (P56481 whole entry): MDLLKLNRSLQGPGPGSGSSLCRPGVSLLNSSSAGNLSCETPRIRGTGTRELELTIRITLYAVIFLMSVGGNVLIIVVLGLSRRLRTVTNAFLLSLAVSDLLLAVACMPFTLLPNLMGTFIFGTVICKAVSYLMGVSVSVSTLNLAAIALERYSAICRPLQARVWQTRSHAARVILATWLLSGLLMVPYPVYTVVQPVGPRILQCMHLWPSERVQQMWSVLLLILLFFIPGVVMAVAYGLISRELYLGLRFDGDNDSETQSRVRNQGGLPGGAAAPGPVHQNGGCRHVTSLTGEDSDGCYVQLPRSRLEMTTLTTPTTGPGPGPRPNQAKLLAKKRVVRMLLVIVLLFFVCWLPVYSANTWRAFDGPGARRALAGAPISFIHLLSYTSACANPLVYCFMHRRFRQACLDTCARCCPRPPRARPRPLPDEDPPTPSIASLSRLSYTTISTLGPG
- assay-remarks: Binding affinity towards CCK-B receptor in mouse cerebral cortex using [125I]Bolton-Hunter CCK-8 as radioligand; Value ranges from 9.8-25 uM
- Type: tissue-based
metric-name: pIC50
Scale explanation: pIC50 corresponds to minus log10 of a concentration expressed in moles per litre.

Inquiry: Endpoint output: pIC50 of `O=C1[C@H](Cc2c[nH]c3ccccc23)CN(Cc2ccccc2)C[C@@H]1Cc1c[nH]c2ccccc12` . Value?
Reply text: 4.82

* * *

- system-tested: Neuromedin-K receptor (Cavia porcellus, UniProt P30098)
- Sequence (P30098 whole entry): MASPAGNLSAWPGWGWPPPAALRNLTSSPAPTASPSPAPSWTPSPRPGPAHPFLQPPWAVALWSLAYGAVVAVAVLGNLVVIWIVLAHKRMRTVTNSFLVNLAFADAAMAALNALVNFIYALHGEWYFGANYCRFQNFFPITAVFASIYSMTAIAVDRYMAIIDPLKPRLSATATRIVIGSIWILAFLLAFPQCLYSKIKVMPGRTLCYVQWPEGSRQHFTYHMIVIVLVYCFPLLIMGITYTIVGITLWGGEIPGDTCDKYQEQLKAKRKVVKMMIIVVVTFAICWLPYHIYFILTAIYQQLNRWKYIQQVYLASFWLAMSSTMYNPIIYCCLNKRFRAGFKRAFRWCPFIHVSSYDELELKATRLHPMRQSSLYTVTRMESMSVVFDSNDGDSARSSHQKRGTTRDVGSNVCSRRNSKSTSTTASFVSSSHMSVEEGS
- assay-remarks: Binding affinity towards Tachykinin receptor 3 in guinea pig cerebral cortex using [3H]senktide as radioligand; Value ranges from 8.2-9.4 uM
- Assay type: tissue-based
metric-name: IC50 (µM)
Only the number, expressed in µM, is required.

Inquiry: Form: Entry = OC1CCN(Cc2ccccc2)C[C@@H]1Cc1c[nH]c2ccccc12 (stereo partly specified) | System = Neuromedin-K receptor (Cavia porcellus, UniProt P30098) | IC50 = ____
Reply text: 8.8
